# System: Trichoplusia ni
# procedureDetails: Feeding deterrent activity against freshly molted third-instar larval stage of Trichoplusia ni (cabbage looper) in compound pretreated cabbage leaves at 50 ug/cm2 after 3 to 5 hr by leaf disk choice bioassay
# Assay type: functional
reportedMetric: Activity (%)

>>> resultnumber("C=CCc1cccc(OCCC(C)C)c1O")
100
>>> resultnumber("C=CCc1cc(OCCC)ccc1OCC")
66
>>> resultnumber("C=CCOc1ccc(OCC)cc1CC=C")
29
>>> resultnumber("C=CCc1cc(OCCC(C)C)ccc1OCCC")
65
>>> resultnumber("C=CCc1cccc(OCCCC)c1OCCC(C)C")
22
>>> resultnumber("C=CCOc1c(CC=C)cccc1OC")
22
